Assay: Pharmacokinetic studies in human, Compound I in plasma by LC/MS/MS
Format: in vivo
Conditions: human, plasma, iv, 475 mg/m2, Group 7, 475 mg/m^2 IV, Day 8, mean, n = 3
observation.type: Vd (L)
Respond numerically; units are L and should not be typed.

Vd reported for this compound Cc1cnc(CNC(=O)c2c(=O)c3ccc(N4CCCN(C)CC4)nc3n3c2sc2ccccc23)cn1 [Compound I] : 2430

----------
Assay: Pharmacokinetic studies in human, Compound I in plasma by LC/MS/MS
Type: in vivo
Details: human, plasma, iv, 150 mg/m2, Group 3, 150 mg/m^2 IV, Day 1, mean, n = 4; read-out: T1/2 (converted)
observation.type: half-life (min)
Respond numerically; units are min and should not be typed.

half-life reported for this compound Cc1cnc(CNC(=O)c2c(=O)c3ccc(N4CCCN(C)CC4)nc3n3c2sc2ccccc23)cn1 [Compound I] : 2890

----------
Assay: Pharmacokinetic studies in human, Compound I in plasma by LC/MS/MS
Assay type: in vivo
Conditions: human, plasma, iv, 325 mg/m2, Group 8, 325 mg/m^2 IV, Day 15, mean, n = 4
observation.type: Tmax (min)
Respond numerically; units are min and should not be typed.

Tmax reported for this molecule Cc1cnc(CNC(=O)c2c(=O)c3ccc(N4CCCN(C)CC4)nc3n3c2sc2ccccc23)cn1 [Compound I] : 47

----------
Test: Pharmacokinetic studies in human, Compound I in plasma by LC/MS/MS
Type: in vivo
Conditions: human, plasma, iv, 250 mg/m2, Group 5, 250 mg/m^2 IV, Day 8, mean, n = 3
observation.type: Tmax (h)
Respond numerically; units are h and should not be typed.

Tmax reported for this molecule Cc1cnc(CNC(=O)c2c(=O)c3ccc(N4CCCN(C)CC4)nc3n3c2sc2ccccc23)cn1 : 1.2

----------
Assay: Pharmacokinetic studies in human, Compound I in plasma by LC/MS/MS
Assay type: in vivo
Conditions: human, plasma, iv, 50 mg/m2, Group 1, 50 mg/m^2 IV, Day 8, mean, n = 3
observation.type: Vd (L)
Respond numerically; units are L and should not be typed.

Vd reported for this compound Cc1cnc(CNC(=O)c2c(=O)c3ccc(N4CCCN(C)CC4)nc3n3c2sc2ccccc23)cn1 : 752

----------
Test: Pharmacokinetic studies in human, Compound I in plasma by LC/MS/MS
Assay type: in vivo
Conditions: human, plasma, iv, 325 mg/m2, Group 6, 325 mg/m^2 IV, Day 1, mean, n = 3; read-out: T1/2 (converted)
observation.type: half-life (h)
Respond numerically; units are h and should not be typed.

half-life reported for this molecule Cc1cnc(CNC(=O)c2c(=O)c3ccc(N4CCCN(C)CC4)nc3n3c2sc2ccccc23)cn1 [Compound I] : 66.9

----------
Tested on: CCD-1058Sk
Assay: Alamar Blue cell viability assay, CCD-1058Sk
Assay type: cell-based
Settings: Normal
Experimental: The effect of Compound I on cell viability was assessed by Alamar Blue assay of metabolic activity in various cancer cell lines.
observation.type: EC50 (µM)
Respond numerically; units are µM and should not be typed.

EC50 reported for this compound Cc1cnc(CNC(=O)c2c(=O)c3ccc(N4CCCN(C)CC4)nc3n3c2sc2ccccc23)cn1 : 4.71

----------
Test system: MDA-MB-453
Assay: Alamar Blue cell viability assay, MDA-MB-453
Type: cell-based
Settings: Homo sapiens; MDA-MB-453, Breast
observation.type: pEC50
In plain terms, pEC50 is the concentration in mol/L turned into minus its base-10 logarithm.

pEC50 reported for this compound Cc1cnc(CNC(=O)c2c(=O)c3ccc(N4CCCN(C)CC4)nc3n3c2sc2ccccc23)cn1 : 6.85
